Value source: ChEMBL document CHEMBL1127119

system: Candida tropicalis; experiment: The compound was tested for its antifungal activity against Candida tropicalis (MY1012); type: functional
Numbered stars: 1 amine (or outer) side, 2 acyl side, 3 side chain; on linkers, the order of the positions; unused ones are H or OH. Bridge positions count the residues as written; N and C are the ends. Square brackets hold non-standard residues; d marks the D form. Peptide text beside a SMILES is read from it. * marks the point of attachment. Orn(4R-OH,5R-OH) = O=C([C@H](C[C@@H](O)[C@@H](O)N[*:3])N[*:1])[*:2]; hTyr(3S-OH,4S-OH) = N[C@H](C(=O)O)[C@H](O)[C@@H](O)c1ccc(O)cc1; X6 = O=C(Oc1ccc(O)cc1)[C@@H](O)[C@H](N[*:1])C(=O)[*:2]; Gln(3R-OH) = NC(=O)C[C@@H](O)[C@H](N)C(=O)O; X5 = O=C([C@@H](N[*:1])[C@H](O)CO)[*:2]; Pro(3S-OH) = O=C(O)[C@H]1NCC[C@@H]1O; Hyp = O=C(O)[C@@H]1C[C@@H](O)CN1; X1 = CCC(C)CC(C)CCCCCCCCC(=O)*
Measure: MFC (µg/mL)
# unit: µg/mL | format: bare number

Compound: CCC(C)CC(C)CCCCCCCCC(=O)N[C@H]1C[C@@H](O)[C@@H](O)NC(=O)[C@@H]2[C@@H](O)CCN2C(=O)[C@H]([C@H](O)CC(N)=O)NC(=O)[C@H]([C@H](O)CO)NC(=O)[C@@H]2C[C@@H](O)CN2C(=O)[C@H]([C@@H](C)O)NC1=O (stereo partly drawn) (X1-[Orn(4R-OH,5R-OH)]T[Hyp][X5][Gln(3R-OH)][Pro(3S-OH)]; lactam 1-C)
Assay Target: Candida tropicalis
MFC / µg/mL: 8

Compound: CCC(C)CC(C)CCCCCCCCC(=O)N[C@H]1C[C@@H](O)[C@@H](O)NC(=O)[C@@H]2[C@@H](O)CCN2C(=O)[C@H]([C@H](O)CC(N)=O)NC(=O)[C@H]([C@H](O)[C@@H](O)c2ccc(O)cc2)NC(=O)[C@@H]2C[C@@H](O)CN2C(=O)[C@H]([C@@H](C)O)NC1=O (stereo partly drawn) (X1-[Orn(4R-OH,5R-OH)]T[Hyp][hTyr(3S-OH,4S-OH)][Gln(3R-OH)][Pro(3S-OH)]; lactam 1-C)
Assay Target: Candida tropicalis
MFC / µg/mL: 0.06

query: Record request: MFC value, item CCC(C)CC(C)CCCCCCCCC(=O)N[C@H]1C[C@@H](O)[C@@H](O)NC(=O)[C@@H]2[C@@H](O)CCN2C(=O)[C@H]([C@H](O)CC(N)=O)NC(=O)[C@H]([C@H](O)C(=O)Oc2ccc(O)cc2)NC(=O)[C@@H]2C[C@@H](O)CN2C(=O)[C@H]([C@@H](C)O)NC1=O (stereo partly drawn) (X1-[Orn(4R-OH,5R-OH)]T[Hyp][X6][Gln(3R-OH)][Pro(3S-OH)]; lactam 1-C)
result: 8

====

test system: Candida tropicalis; test: The compound was tested for its antifungal activity against Candida tropicalis (MY1012); type: functional
Numbered stars: 1 amine (or outer) side, 2 acyl side, 3 side chain; on linkers, the order of the positions; unused ones are H or OH. Bridge positions count the residues as written; N and C are the ends. Square brackets hold non-standard residues; d marks the D form. Peptide text beside a SMILES is read from it. * marks the point of attachment. Orn(4R-OH,5R-OH) = O=C([C@H](C[C@@H](O)[C@@H](O)N[*:3])N[*:1])[*:2]; hTyr(3R-OH) = N[C@H](C(=O)O)[C@H](O)Cc1ccc(O)cc1; Gln(3R-OH) = NC(=O)C[C@@H](O)[C@H](N)C(=O)O; Pro(3S-OH) = O=C(O)[C@H]1NCC[C@@H]1O; Hyp = O=C(O)[C@@H]1C[C@@H](O)CN1; X1 = CCC(C)CC(C)CCCCCCCCC(=O)*
Measure: MFC

query: Record request: MFC value, item CCC(C)CC(C)CCCCCCCCC(=O)N[C@H]1C[C@@H](O)[C@@H](O)NC(=O)[C@@H]2[C@@H](O)CCN2C(=O)[C@H]([C@H](O)CC(N)=O)NC(=O)[C@H]([C@H](O)Cc2ccc(O)cc2)NC(=O)[C@@H]2C[C@@H](O)CN2C(=O)[C@H]([C@@H](C)O)NC1=O (stereo partly drawn) (X1-[Orn(4R-OH,5R-OH)]T[Hyp][hTyr(3R-OH)][Gln(3R-OH)][Pro(3S-OH)]; lactam 1-C)
result: < 0.06 µg/mL
